The origin of these recorded values is patent US20230312528A1.

target: human NaV1.8 (Homo sapiens (Human)); experiment: Nav1.8 Qube automated patch-clamp assay; assay type: cell-based; details: human NaV1.8 stably expressed in HEK 293 cells; automated 384-well patch-clamp; resting or inactivated state not specified
Sequence (Q9Y5Y9 whole entry): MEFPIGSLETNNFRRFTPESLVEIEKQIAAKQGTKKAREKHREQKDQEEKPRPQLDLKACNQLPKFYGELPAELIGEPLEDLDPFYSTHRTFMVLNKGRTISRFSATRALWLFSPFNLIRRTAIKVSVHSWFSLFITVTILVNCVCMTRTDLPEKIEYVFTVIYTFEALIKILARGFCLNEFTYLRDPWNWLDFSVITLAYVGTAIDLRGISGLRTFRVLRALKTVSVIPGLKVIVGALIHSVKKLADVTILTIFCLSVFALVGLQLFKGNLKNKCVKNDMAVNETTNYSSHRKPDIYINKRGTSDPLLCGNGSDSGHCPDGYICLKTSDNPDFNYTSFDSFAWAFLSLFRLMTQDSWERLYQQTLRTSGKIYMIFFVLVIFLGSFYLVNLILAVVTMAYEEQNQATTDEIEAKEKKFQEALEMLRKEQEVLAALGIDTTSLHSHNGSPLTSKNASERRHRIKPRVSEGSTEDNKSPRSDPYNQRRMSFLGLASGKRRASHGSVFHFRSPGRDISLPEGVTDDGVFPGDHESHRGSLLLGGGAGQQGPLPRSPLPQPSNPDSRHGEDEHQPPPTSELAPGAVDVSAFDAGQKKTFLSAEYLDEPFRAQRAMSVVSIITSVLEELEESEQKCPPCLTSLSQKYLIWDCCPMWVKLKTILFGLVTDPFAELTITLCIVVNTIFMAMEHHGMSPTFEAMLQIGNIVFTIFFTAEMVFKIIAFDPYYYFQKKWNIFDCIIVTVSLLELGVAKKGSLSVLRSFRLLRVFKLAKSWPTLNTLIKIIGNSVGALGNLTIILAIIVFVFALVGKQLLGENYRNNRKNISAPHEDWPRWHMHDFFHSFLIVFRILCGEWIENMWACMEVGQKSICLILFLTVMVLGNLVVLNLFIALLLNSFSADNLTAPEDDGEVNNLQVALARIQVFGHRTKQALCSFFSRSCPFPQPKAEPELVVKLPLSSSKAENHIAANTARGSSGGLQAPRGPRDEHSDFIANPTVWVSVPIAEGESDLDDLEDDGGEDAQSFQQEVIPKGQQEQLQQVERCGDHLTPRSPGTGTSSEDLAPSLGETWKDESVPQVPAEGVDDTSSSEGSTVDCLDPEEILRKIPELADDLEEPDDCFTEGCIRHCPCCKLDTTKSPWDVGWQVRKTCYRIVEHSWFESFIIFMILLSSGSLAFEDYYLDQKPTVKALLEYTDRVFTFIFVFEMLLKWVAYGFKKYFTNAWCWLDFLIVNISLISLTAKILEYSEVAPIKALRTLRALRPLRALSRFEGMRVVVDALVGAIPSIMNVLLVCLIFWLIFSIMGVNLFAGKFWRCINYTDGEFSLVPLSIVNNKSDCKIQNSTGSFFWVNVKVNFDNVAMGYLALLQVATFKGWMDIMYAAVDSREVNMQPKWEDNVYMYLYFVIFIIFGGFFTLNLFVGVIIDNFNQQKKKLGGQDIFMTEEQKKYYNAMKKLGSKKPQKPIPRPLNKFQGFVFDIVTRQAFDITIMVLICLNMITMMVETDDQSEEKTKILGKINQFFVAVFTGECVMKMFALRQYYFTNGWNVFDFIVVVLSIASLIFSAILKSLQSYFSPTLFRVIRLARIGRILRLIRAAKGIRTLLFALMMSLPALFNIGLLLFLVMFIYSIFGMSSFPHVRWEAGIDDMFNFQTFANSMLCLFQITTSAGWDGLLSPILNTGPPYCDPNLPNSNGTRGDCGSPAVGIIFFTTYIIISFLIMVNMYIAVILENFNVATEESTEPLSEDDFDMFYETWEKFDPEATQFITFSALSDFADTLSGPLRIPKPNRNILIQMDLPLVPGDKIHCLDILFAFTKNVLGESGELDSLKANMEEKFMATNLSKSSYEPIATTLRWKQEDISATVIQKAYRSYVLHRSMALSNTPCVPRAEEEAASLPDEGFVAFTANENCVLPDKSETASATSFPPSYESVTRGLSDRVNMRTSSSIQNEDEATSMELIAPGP
Returns: string. Value is condition met if measured IC50 is below 90 nM, and condition not met if it is greater than or equal to it.

Check out these entries, answers already filled in.
In: Below 90 nM on IC50? Entry CC1(C(=O)NC(c2ccc(Cl)cc2)c2ccc(Cl)cc2)NC(=O)NC1=O (single isomer, unassigned) [Example 20B]
Out: condition not met

In: Dear colleague, could you confirm whether IC50 of CC(N1CC(C)(C(NC(=O)[C@@H]2CNC(=O)N2)c2ccc(F)c(Cl)c2F)C1)C(F)(F)F (single isomer, unassigned) [Example 65D] falls below 90 nM? Thanks.
Out: condition not met

In: State whether 90 nM exceeds IC50 recorded for O=C1NC[C@@H](C(=O)NC(c2ccc(F)c(Cl)c2)C2Cc3ccc(F)cc32)N1 (stereo partly drawn) .
Out: condition not met

In: Criterion: IC50 strictly below 90 nM. Is it met by O=C1NC[C@@H](C(=O)NC(c2ccc(Cl)cc2)c2cc(C(F)(F)F)c(F)cn2)N1 (single isomer, unassigned) [Example 59B] ?
Out: condition met

In: Problem: For the molecule O=C1NC[C@@H](C(=O)NC(c2ccc(Cl)cc2)c2ccc3cn[nH]c3c2)N1 (single isomer, unassigned) [Example 82B] , is IC50 under 90 nM?
Out: condition not met

We next turn to a different molecule, shown below.
In: Hello, I'm reviewing records and need to know if IC50 of O=C1NC[C@@H](C(=O)NC(c2cnc(C(F)(F)F)c(Cl)c2)c2ccc(Cl)c(C(F)(F)F)n2)N1 (single isomer, unassigned) [Example 56B] is below 90 nM. Could you check?
Out: condition met

====

molecular target: UniProt:Q9Y5Y9; assay: Nav1.8 Qube automated patch-clamp assay; format: cell-based; settings: human NaV1.8 stably expressed in HEK 293 cells; automated 384-well patch-clamp; resting or inactivated state not specified
Item-by-item account of IC50
Quick reminder: number only, in nM, skip the unit.

Noted for O=C1NC[C@@H](C(=O)NC(CC2CCCCC2)c2ccc(F)c(Cl)c2F)N1 (single isomer, unassigned) [Example 54A] : its IC50 reads 3.2

New cases:
So, O=C1NC[C@@H](C(=O)NC(c2ccc(F)c(Cl)c2)C2C3CN(CC(F)(F)F)CC32)N1 (single isomer, unassigned) [Example 77B] ? Its IC50 was 267

For this compound ( O=C1NC[C@@H](C(=O)NC(c2ccc(OC(F)(F)F)cc2)c2ccc(Cl)c(C3CC3)n2)N1 (single isomer, unassigned) [Example 40A] ), measured IC50 is 21

Just so you know, measured IC50 for CN1CCC(C(NC(=O)[C@@H]2CNC(=O)N2)c2ccc(F)c(Cl)c2F)CC1C(F)(F)F (single isomer, unassigned) [Example 78C] came out at 8630

Query Cc1nc2ccc(C(NC(=O)[C@@H]3CNC(=O)N3)c3ccc(Cl)cc3)cc2o1 (single isomer, unassigned) [Example 83A] yields IC50 of 147

Form field IC50, entry O=C1NC[C@@H](C(=O)NC(c2ccc(F)c(Cl)c2F)C2CCN(C3(C(F)(F)F)CC3)CC2)N1 (single isomer, unassigned) [Example 5B] : 74

For O=C1NC[C@@H](C(=O)NC(COc2ccc(C(F)(F)F)nc2)c2ccc(F)c(Cl)c2)N1 (mixture of isomers) the compound record lists IC50 as 219

Sample Cc1nc2cc(C(NC(=O)[C@@H]3CNC(=O)N3)c3ccc(F)c(Cl)c3)ccc2s1 (single isomer, unassigned) [Example 66A] ; IC50 observed: 63

Entry under test: O=C1NC[C@@H](C(=O)NC(c2ccc(F)c(Cl)c2F)[C@@H]2CC[C@@H](C(F)(F)F)CO2)N1 (single isomer, unassigned) [Example 8C] . Its IC50 was 23

Kindly note the recorded IC50 for O=C1NC[C@@H](C(=O)NC(c2ccc(OC(F)(F)F)c(Cl)c2)c2ccc(OC(F)(F)F)cn2)N1 (single isomer, unassigned) [Example 39A] , which is 1.3

compound O=C1NC[C@@H](C(=O)NC(CCc2ccc(Cl)cc2)c2ccc(F)c(Cl)c2F)N1 (single isomer, unassigned) [Example 52A] , IC50 observed: 46

Notebook: CC1(C)CC(C(NC(=O)[C@@H]2CNC(=O)N2)c2ccc(Cl)cc2)CCN1CC(F)(F)F (single isomer, unassigned) [Example 91A] , IC50 read as 289

According to the records, this compound CN1CCC(C(NC(=O)[C@@H]2CNC(=O)N2)c2ccc(F)c(Cl)c2F)CC1C(F)(F)F (single isomer, unassigned) [Example 78A] displays IC50 of 4070

====

target: human NaV1.8 (Homo sapiens (Human)); assay: Nav1.8 Qube automated patch-clamp assay; format: cell-based; conditions: human NaV1.8 stably expressed in HEK 293 cells; automated 384-well patch-clamp; resting or inactivated state not specified
Output Criterion met for records whose IC50 is lower than 20 nM, Criterion not met for records at or above 20 nM.

Observe how each entry below is paired with its result.
In: Lab log: compare recorded IC50 with 20 nM; is it strictly lower for O=C1NC[C@@H](C(=O)NC(COc2ccc(F)c(Cl)c2)c2ccc(F)c(Cl)c2)N1 (single isomer, unassigned) [Example 1B] ?
Out: Criterion not met

In: Item O=C1NC[C@@H](C(=O)NC(c2cnc(C(F)(F)F)c(Cl)c2)c2ccc(Cl)c(C(F)F)n2)N1 (single isomer, unassigned) [Example 3B] : IC50 beneath 20 nM, strictly?
Out: Criterion met

In: Please check: IC50 for Cc1nc2cc(C(NC(=O)[C@@H]3CNC(=O)N3)c3ccc(F)c(Cl)c3)ccc2s1 (single isomer, unassigned) [Example 66B] , strictly under 20 nM or not?
Out: Criterion met

Further cases:
In: Does the reported IC50 of the following compound sit strictly below 20 nM? O=C1NC[C@@H](C(=O)NC(c2ccc(OC(F)(F)F)cc2)c2ccc3c(c2)C(F)(F)C3)N1 (single isomer, unassigned) [Example 89]
Out: Criterion met

In: Please indicate whether the reported IC50 of O=C1NC[C@@H](C(=O)NC(c2ccc(OCC(F)(F)F)nn2)c2ccc(F)c(Cl)c2F)N1 (single isomer, unassigned) [Example 50A] is strictly below 20 nM.
Out: Criterion not met

In: For this compound, is IC50 lower than 20 nM? O=C1NC[C@@H](C(=O)NC(c2ccc(F)c(Cl)c2)C2Cc3c(Cl)cccc32)N1 (single isomer, unassigned) [Example 70C]
Out: Criterion not met

====

target: human NaV1.8 (Homo sapiens (Human)); test: Nav1.8 Qube automated patch-clamp assay; assay type: cell-based; conditions: human NaV1.8 stably expressed in HEK 293 cells; automated 384-well patch-clamp; resting or inactivated state not specified
Quick list: log10 of IC50 per entry.
Could you please treat all values as log10 of IC50 in nM?

CN1CC(C(=O)NC(c2ccc(Cl)cc2)c2ccc(Cl)cc2)NC1=O (single isomer, unassigned) [Example 10B] yielded log10 of IC50 of 2.70

The molecule O=C1NC[C@@H](C(=O)NC(c2ccc(F)c(Cl)c2)c2ccc(F)c(OCC(F)(F)F)n2)N1 (single isomer, unassigned) [Example 11A] showed log10 of IC50 equal to 1.70

Query O=C1NC[C@@H](C(=O)NC(c2ccc(OC(F)(F)F)nc2)c2ccc(F)c(C(F)(F)F)n2)N1 (single isomer, unassigned) [Example 45B] yields log10 of IC50 of 2.10

For this molecule ( O=C1NC[C@@H](C(=O)NC(c2ccc(F)c(Cl)c2)c2ccn(CC(F)(F)F)n2)N1 (single isomer, unassigned) [Example 28B] ), measured log10 of IC50 is 2.64

Just so you know, measured log10 of IC50 for CC(N1CC(C)(C(NC(=O)[C@@H]2CNC(=O)N2)c2ccc(F)c(Cl)c2F)C1)C(F)(F)F (single isomer, unassigned) [Example 65A] came out at 4.21

Notebook: O=C1NC[C@@H](C(=O)NC(c2ccc(F)c(Cl)c2)[C@H]2CC[C@H](C(F)(F)F)CC2)N1 (single isomer, unassigned) [Example 32A] , log10 of IC50 read as 0.53

Reported log10 of IC50 for O=C1NC[C@@H](C(=O)NC(CC2CCC(C(F)(F)F)CC2)c2ccc(F)c(Cl)c2F)N1 (single isomer, unassigned) [Example 23D] was 2.28

# log10 of IC50 of O=C1NC[C@@H](C(=O)NC(c2ccc(OC(F)(F)F)c(Cl)c2)c2ccnc(C(F)(F)F)n2)N1 (single isomer, unassigned) [Example 49A] = 0.88

---
get_value(item= O=C1NC[C@@H](C(=O)NC(c2ccc(C(F)F)nc2)c2ccc(F)c(Cl)c2F)N1 (single isomer, unassigned) , readout=log10 of IC50) returns 1.11

The recorded log10 of IC50 for entry O=C1NC[C@@H](C(=O)NC(c2ccc(F)c(Cl)c2F)C2COC(C(F)(F)F)C2)N1 (single isomer, unassigned) [Example 79G] equals 3.37

// N#Cc1ccc(C(NC(=O)[C@@H]2CNC(=O)N2)c2ccc(F)c(Cl)c2)cc1 (single isomer, unassigned) [Example 18A] : log10 of IC50 value = 1.26

Entry O=C1NC[C@@H](C(=O)NC(c2cnc(OC(F)F)s2)c2ccc(F)c(Cl)c2F)N1 (single isomer, unassigned) [Example 36B] — recorded log10 of IC50 = 2.27

What the record says about CN1CC(C(=O)NC(c2ccc(Cl)cc2)c2ccc(Cl)cc2)NC1=O (single isomer, unassigned) [Example 10A] : log10 of IC50 is 3.03

molecule O=C1NC[C@@H](C(=O)NC(COC2CCC(F)(F)CC2)c2ccc(F)c(Cl)c2)N1 (single isomer, unassigned) [Example 29B] , log10 of IC50 observed: 2.21

# log10 of IC50 (molecule: O=C1NC[C@@H](C(=O)NC(c2ccc(F)c(Cl)c2F)[C@H]2C[C@H](C(F)(F)F)C2)N1 (single isomer, unassigned) [Example 34B] ) is 1.88

Input O=C1NC[C@@H](C(=O)NC(c2ccc(OCC(F)(F)F)nc2)c2ccc(F)c(Cl)c2F)N1 (single isomer, unassigned) [Example 33B] . Output log10 of IC50: 1.59

log10 of IC50 in this record for O=C1NC[C@@H](C(=O)NC(c2ccc(OC(F)(F)F)nc2)c2ccc(F)c(Cl)c2F)N1 (single isomer, unassigned) [Example 24B] : 1.61

log10 of IC50 measured on O=C1NC[C@@H](C(=O)NC(c2ccc(OC(F)(F)F)cc2)c2cccc(Cl)c2)N1 (single isomer, unassigned) [Example 9A] = 0.30

Documented log10 of IC50 of O=C1NC[C@@H](C(=O)NC(c2cnc(C(F)(F)F)c(Cl)c2)c2ccc(Cl)c(C(F)(F)F)n2)N1 (single isomer, unassigned) [Example 56A] : 0.40

Item: O=C1NC[C@@H](C(=O)NC(c2ccc(OC(F)(F)F)cc2)c2ccc(F)c(C(F)(F)F)n2)N1 (single isomer, unassigned) [Example 7B] | log10 of IC50: 1.64
